Value source: patent US3981999A

System: Vibrio anguillarum A-8
measurement protocol: MIC by broth serial dilution
Type: cell-based
condition context: A8, 3% NaCl-bouillon pH 7.2, 25°C, 48 hours, read-out: MIC
value kind: MIC (µg/mL)
The answer is to be given in µg/mL; state only the numeric part.

Input line: What measured MIC goes with C=Cn1cc(C(=O)O)c(=O)c2ccc(N3CCN(C)CC3)cc21 [AT-1493] ?
Output line: 3

Input line: // same read-out, input: C=Cn1cc(C(=O)O)c(=O)c2ccc(N3CCNCC3)nc21 [AT-1475]
Output line: 10

Input line: // same read-out, input: CCn1cc(C(=O)O)c(=O)c2cnc(N3CCCC3)nc21 [PA]
Output line: 3

Input line: // same read-out, input: C=Cn1cc(C(=O)O)c(=O)c2ccc(N3CCN(CC)CC3)cc21 [AT-1557]
Output line: 3

###

Give MIC for every item shown.
Tested on: Vibrio anguillarum K-3
measurement protocol: MIC by broth serial dilution
Type: cell-based
condition context: K3, 3% NaCl-bouillon pH 7.2, 25°C, 48 hours, read-out: MIC
// unit must come after the numeric part

Input line: What measured MIC goes with CCn1cc(C(=O)O)c(=O)c2cnc(N3CCCC3)nc21 [PA] ?
Output line: 1 µg/mL

Input line: // same read-out, input: C=Cn1cc(C(=O)O)c(=O)c2ccc(N3CCNCC3)nc21 [AT-1475]
Output line: 3 µg/mL

Input line: // same read-out, input: C=Cn1cc(C(=O)O)c(=O)c2ccc(N3CCN(CC)CC3)cc21 [AT-1557]
Output line: 10 µg/mL

Input line: // same read-out, input: C=Cn1cc(C(=O)O)c(=O)c2ccc(N3CCN(C)CC3)cc21 [AT-1493]
Output line: 3 µg/mL

###

Test system: Vibrio anguillarum Km-30
measurement protocol: MIC by broth serial dilution
Format: cell-based
condition context: KM30, 3% NaCl-bouillon pH 7.2, 25°C, 48 hours, read-out: MIC
value kind: MIC (mg/L)
The answer is to be given in mg/L; state only the numeric part.

Input line: What measured MIC goes with `CCn1cc(C(=O)O)c(=O)c2cnc(N3CCCC3)nc21` ?
Output line: 3

Input line: // same read-out, input: `C=Cn1cc(C(=O)O)c(=O)c2ccc(N3CCN(C)CC3)cc21`
Output line: 3

Input line: // same read-out, input: `C=Cn1cc(C(=O)O)c(=O)c2ccc(N3CCNCC3)nc21`
Output line: 10

Input line: // same read-out, input: `C=Cn1cc(C(=O)O)c(=O)c2ccc(N3CCN(CC)CC3)cc21`
Output line: 10

###

System: Aeromonas liquefacieus Y-62
measurement protocol: Oral effect against Aeromonas infection in goldfish
Assay type: in vivo
condition context: 0.1% in diet (PA 6.1, AT-1493 7.5, AT-1557 7.6, AT-1475 7.5 mg/kg); day 0: PA 10, others 5 fish
value kind: Number of surviving fish after 5 days

Input line: What measured Number of surviving fish after 5 days goes with C=Cn1cc(C(=O)O)c(=O)c2ccc(N3CCNCC3)nc21 [AT-1475] ?
Output line: 3

Input line: // same read-out, input: C=Cn1cc(C(=O)O)c(=O)c2ccc(N3CCN(C)CC3)cc21 [AT-1493]
Output line: 5

Input line: // same read-out, input: C=Cn1cc(C(=O)O)c(=O)c2ccc(N3CCN(CC)CC3)cc21 [AT-1557]
Output line: 5

Input line: // same read-out, input: CCn1cc(C(=O)O)c(=O)c2cnc(N3CCCC3)nc21 [PA]
Output line: 10

###

Tested on: Chondrococcus sp K-1
measurement protocol: MIC by broth serial dilution
Assay type: cell-based
condition context: TY medium pH 7.3, 25°C, 48 hours; read-out: MIC
Give MIC for every item shown.
// unit must come after the numeric part

Input line: What measured MIC goes with `CCn1cc(C(=O)O)c(=O)c2cnc(N3CCCC3)nc21` ?
Output line: 0.3 µg/mL

Input line: // same read-out, input: `C=Cn1cc(C(=O)O)c(=O)c2ccc(N3CCN(CC)CC3)cc21`
Output line: 1 µg/mL

Input line: // same read-out, input: `C=Cn1cc(C(=O)O)c(=O)c2ccc(N3CCN(C)CC3)cc21`
Output line: 3 µg/mL

Input line: // same read-out, input: `C=Cn1cc(C(=O)O)c(=O)c2ccc(N3CCNCC3)nc21`
Output line: 1 µg/mL

###

Give Number of surviving fish after 2 days for every item shown.
System: Aeromonas liquefacieus Y-62
measurement protocol: Oral effect against Aeromonas infection in goldfish
Assay type: in vivo
condition context: 0.1% in diet (PA 6.1, AT-1493 7.5, AT-1557 7.6, AT-1475 7.5 mg/kg); day 0: PA 10, others 5 fish
Just the number, please, no unit after it.

Input line: What measured Number of surviving fish after 2 days goes with `C=Cn1cc(C(=O)O)c(=O)c2ccc(N3CCN(C)CC3)cc21` ?
Output line: 5

Input line: // same read-out, input: `C=Cn1cc(C(=O)O)c(=O)c2ccc(N3CCNCC3)nc21`
Output line: 4

Input line: // same read-out, input: `C=Cn1cc(C(=O)O)c(=O)c2ccc(N3CCN(CC)CC3)cc21`
Output line: 5

Input line: // same read-out, input: `CCn1cc(C(=O)O)c(=O)c2cnc(N3CCCC3)nc21`
Output line: 10

###

System: Aeromonas liquefacieus Y-62
measurement protocol: Oral effect against Aeromonas infection in goldfish
Assay type: in vivo
condition context: 0.1% in diet (PA 6.1, AT-1493 7.5, AT-1557 7.6, AT-1475 7.5 mg/kg); 5 days
Method: Goldfish each weighing about 6 - 7 g were given a fish food containing each of the test compounds. After 30 minutes, the fish were infected intramuscularly with Aeromonas liquefacieus Y-62 (about 10^7 germs/fish) under ether anesthesia. […] In the same manner, the control group was given the same fish food without the test compound.
value kind: Percent survival (%)
The answer is to be given in %; state only the numeric part.

Input line: What measured Percent survival goes with `C=Cn1cc(C(=O)O)c(=O)c2ccc(N3CCN(C)CC3)cc21` ?
Output line: 100

Input line: // same read-out, input: `C=Cn1cc(C(=O)O)c(=O)c2ccc(N3CCN(CC)CC3)cc21`
Output line: 100

Input line: // same read-out, input: `C=Cn1cc(C(=O)O)c(=O)c2ccc(N3CCNCC3)nc21`
Output line: 60

Input line: // same read-out, input: `CCn1cc(C(=O)O)c(=O)c2cnc(N3CCCC3)nc21`
Output line: 100
